Attribute: response
test: yeast vacuolar ATPase proton transport modulators – pHLuorin cytosolic pH fluorescence, primary screen (AID 504577); further: actives read high; conditions: S. cerevisiae, at 10 µM, stronger effect = higher value
Out of some 350,000 compounds screened, about 1,300 (0.37%) were called active. Many of the other results were omitted from the sample, so actives are more common in it than they were.
Kindly provide the numeric value in % only, without the unit symbol.

# example entries with known answers
compound=O=C(Nc1ccc(N2CCOCC2)cc1)c1ccc(-c2ccccc2[N+](=O)[O-])o1 unit_abbreviation=% value_measured=-1.06
compound=CCOc1ccc(NC(=O)COc2ccc(S(=O)(=O)N3CCCC3)cc2)cc1 unit_abbreviation=% value_measured=2.92
compound=CCOC(=O)CNC(=O)CSc1nnc(COc2ccc(Cl)cc2)n1CC unit_abbreviation=% value_measured=17.5
compound=Cc1occc1C(=O)Nc1nnc(C2CCCCC2)s1 unit_abbreviation=% value_measured=10
compound=OCc1nc(CO)n(Cc2ccccc2)n1 unit_abbreviation=% value_measured=12.8
compound=O=C(COc1ncnc2c(Cl)cc(Cl)cc12)N1CCN(S(=O)(=O)c2ccccc2)CC1 unit_abbreviation=% value_measured=2.02
compound="O=C(CC1SC(=Nc2ccccc2F)N(CCN2CCOCC2)C1=O)Nc1ccc(F)cc1F (stereo not given)" unit_abbreviation=% value_measured=1.28
compound="O=C1NC(c2ccc(-c3ccccc3[N+](=O)[O-])o2)C(C(=O)c2ccc(Cl)cc2)C(O)(C(F)(F)F)N1 (stereo not given)" unit_abbreviation=% value_measured=-0.4

For this compound ( CN1CCNC(=O)C1CC(=O)NCCC1=CCCCC1 (stereo not given) ), measured response is 1.15

For this compound ( "Cc1nccc(-c2ccc(-n3c(C)ccc3C)cc2)n1" ), measured response is -1.42

For this compound ( "CCC(=O)c1ccc(OCC(=O)Nc2ccc(N3CCCCC3)cc2)cc1" ), measured response is 9.77

For this compound ( O=C(Cc1ccccc1)NCC1OCCc2ccccc21 (stereo not given) ), measured response is 2.21

For this compound ( CCOC(=O)CC1COCCN1C(=O)c1cc(COc2ccc(F)c(F)c2)on1 (stereo not given) ), measured response is 0.12

For this compound ( "O=C(OCCOc1ccccc1Cl)c1cc(S(=O)(=O)N2CCCCC2)ccc1N1CCOCC1" ), measured response is -0.35

For this compound ( CC(CNC(=O)c1ccc(N)cc1)NC(=O)c1ccc(N)cc1 (stereo not given) ), measured response is -1.34

----------
assay: yeast vacuolar ATPase proton transport modulators – pHLuorin cytosolic pH fluorescence, primary screen (AID 504577); further: actives read high; conditions: S. cerevisiae, at 10 µM, stronger effect = higher value
Out of some 350,000 compounds screened, about 1,300 (0.37%) were called active. Only a selection was taken, and actives are over-represented in it overall.
VALUE TYPE: response (%)
Kindly provide the numeric value in % only, without the unit symbol.

# example entries with known answers
compound=C/C(CC(=O)N1CCN(C=O)CC1)=N\NC(=O)c1ccc(Br)cc1 value_measured=1.52
compound=COc1ccccc1CCC(=O)NNC(=O)c1ccncc1 value_measured=0.13
compound=Cc1cc(C)n(CC(=O)Nc2ccc([N+](=O)[O-])cc2)n1 value_measured=-0.28
compound="CN(CC(=O)NCC(c1ccccc1)N1CCCC1)S(=O)(=O)c1ccc(Cl)cc1 (configuration not stated)" value_measured=-3.93

For this compound ( "Cc1ccc(Cn2ccc(NC(=O)c3cc(C(C)C)on3)n2)cc1" ), measured response is 14.6

For this compound ( "O=C(NCC(=O)N1CCN(c2ncc(C(F)(F)F)cc2Cl)CC1)c1ccc(Br)o1" ), measured response is -5.76

For this compound ( "CNC(=O)c1csc(-c2ccccc2)n1" ), measured response is -0.68
